- System: human APOE RNA
- assay.details: Dose-dependent inhibition of human APOE RNA in HepG2 cells, electroporation, 50,000 cells per well, RT-PCR normalized to GAPDH (Example 4, Tables 8-10)
- Type: cell-based
- details: 3,200 nM; HepG2, electroporation, 16-hour treatment
Strand notation (5' to 3'): a small letter for the sugar, then the base; units joined by * are phosphorothioate-linked, units joined directly phosphodiester-linked; [ ] holds rarer units or linkages, { } end groups; capitals alone tell only the bases. [ms] = mesyl phosphoramidate linkage; e = 2'-O-(2-methoxyethyl) (MOE); k = constrained ethyl (cEt); [5mC] = 5-methylcytosine; d = 2'-deoxy (DNA)
As shown below, each of these substances has a reported APOE RNA (% UTC) value.
Supply the numeric figure in % UTC, leaving out any unit text.

Aes^mCeoTeoTesGesGksTdsGdzAdzAdzTds^mCdsTdsTdsTdsAdzTksTksAesAe (eA*e[5mC]eTeT*eG*kG*dT*dG[ms]dA[ms]dA[ms]dT*d[5mC]*dT*dT*dT*dA[ms]kT*kT*eA*eA) [Compound No. 1757576]: 32

Q) Identify measured APOE RNA (% UTC) corresponding to 1757563: mixed MOE/cEt gapmer TTGGTGAATCTTTATTAA, sugar eeeekddddddddkekee, linkages soossssssssssooss (eT*eTeGeG*kT*dG*dA*dA*dT*d[5mC]*dT*dT*dT*kAeTkT*eA*eA) [compound 1757563]
A) 41

Q) In one line, give reported APOE RNA (% UTC) of the entry 1757568 (eA*e[5mC]eTeTeG*dG*dT*dG*dA*dA*dT*d[5mC]*dT*dT*dT*kAkTeT*eA*eA; antisense) [Compound 1757568] .
A) 31

Q) // Input: 1757556: mixed MOE/cEt gapmer TTGGTGAATCTTTATTAA, sugar eeeeeddddddddekkee, linkages soossssssssssooss (eT*eTeGeG*eT*dG*dA*dA*dT*d[5mC]*dT*dT*dT*eAkTkT*eA*eA) [compound 1757556] . Output its APOE RNA (% UTC) only.
A) 60

----------
List of APOE RNA (% UTC) values.
- System: human APOE RNA
- assay.details: Dose-dependent inhibition of human APOE RNA in HepG2 cells, electroporation, 50,000 cells per well, RT-PCR normalized to GAPDH (Example 4, Tables 8-10)
- Assay type: cell-based
- details: 20,000 nM; HepG2, electroporation, 24-hour treatment
Strand notation (5' to 3'): a small letter for the sugar, then the base; units joined by * are phosphorothioate-linked, units joined directly phosphodiester-linked; [ ] holds rarer units or linkages, { } end groups; capitals alone tell only the bases. [ms] = mesyl phosphoramidate linkage; k = constrained ethyl (cEt); [5mC] = 5-methylcytosine; d = 2'-deoxy (DNA)
Lab book: enter the figure in % UTC, no units written.

The examples below pair each entry with its known result.
1746797 (k[5mC]*kT*dT[ms]dG[ms]dG[ms]kT*dG[ms]dA[ms]dA[ms]dT*d[5mC]*dT*dT*dT*dA[ms]dT*kT*dA[ms]kA*kA; antisense) [Compound 1746797]: 18
1746790 (k[5mC]*dT[ms]kT*dG[ms]dG[ms]kT*dG[ms]dA[ms]dA[ms]dT*d[5mC]*dT*dT*dT*dA[ms]dT*kT*kA*dA[ms]kA; antisense) [Compound 1746790]: 8
1746786 (k[5mC]*kT*dT[ms]dG[ms]kG*dT[ms]dG[ms]dA[ms]dA[ms]dT*d[5mC]*dT*dT*dT*dA[ms]dT*kT*kA*dA[ms]kA; antisense) [Compound 1746786]: 14

Q) Tell me APOE RNA (% UTC) reported for 1746784 (k[5mC]*kT*kT*dG[ms]dG[ms]dT[ms]dG[ms]dA[ms]dA[ms]dT*d[5mC]*dT*dT*dT*dA[ms]dT*kT*kA*dA[ms]kA; antisense) [Compound 1746784]
A) 7

Q) Retrieve APOE RNA (% UTC) measured for 1746801 (k[5mC]*dT[ms]dT[ms]kG*kG*dT[ms]dG[ms]dA[ms]dA[ms]dT*d[5mC]*dT*dT*dT*dA[ms]dT*kT*dA[ms]kA*kA; antisense) [Compound 1746801] and print it.
A) 2

Q) Recall and state the measured APOE RNA (% UTC) for 1746792 (k[5mC]*dT[ms]dT[ms]kG*dG[ms]kT*dG[ms]dA[ms]dA[ms]dT*d[5mC]*dT*dT*dT*dA[ms]dT*kT*kA*dA[ms]kA; antisense) [Compound 1746792] .
A) 6

Q) Respond only with APOE RNA (% UTC) recorded for 1746793 (k[5mC]*dT[ms]dT[ms]dG[ms]kG*kT*dG[ms]dA[ms]dA[ms]dT*d[5mC]*dT*dT*dT*dA[ms]dT*kT*kA*dA[ms]kA; antisense) [Compound 1746793]
A) 2

Q) Answer with the recorded APOE RNA (% UTC) for the substance listed here: 1746811 (k[5mC]*dT[ms]dT[ms]kG*kG*dT[ms]dG[ms]dA[ms]dA[ms]dT*d[5mC]*dT*dT*dT*dA[ms]dT*dT[ms]kA*kA*kA; antisense) [Compound 1746811]
A) 5

Q) Could you please provide reported APOE RNA (% UTC) for 1746803 (k[5mC]*dT[ms]dT[ms]kG*dG[ms]kT*dG[ms]dA[ms]dA[ms]dT*d[5mC]*dT*dT*dT*dA[ms]dT*kT*dA[ms]kA*kA; antisense) [Compound 1746803] ? Thanks!
A) 39

Q) Using the record for 1746804 (k[5mC]*kT*kT*dG[ms]dG[ms]dT[ms]dG[ms]dA[ms]dA[ms]dT*d[5mC]*dT*dT*dT*dA[ms]dT*dT[ms]kA*kA*kA; antisense) [Compound 1746804] , state its measured APOE RNA (% UTC).
A) 2

Sourced from patent US20250353873A1
